# Test system: APEC serotype O78
# Condition: efficacy trial, oral
Measured metric: Mean lesion score in Lung
Number, no unit, nothing else.

Take a look at these entries with their results.
CC1CCCN(CCC(=O)c2ccc(Br)cc2)C1 (centres unmarked)    0.7
COc1cc(CNCCc2ccc(C)cc2)ccc1OCC(O)CN1CCCC1 (centres unmarked)    1

If you can, please state the reported Mean lesion score in Lung value of COc1ccc(CNCc2cccc(C(F)(F)F)c2)cc1OCC(O)CN1CCCC1 (centres unmarked) .
0.2

Looking for the measured Mean lesion score in Lung of CC(=O)OC(C(Br)C(=O)c1ccc([N+](=O)[O-])cc1)C(Cl)(Cl)Cl (centres unmarked) , can you help?
1

So what's the measured Mean lesion score in Lung for this one? COc1cc(CNCCc2ccc3ccccc3c2)ccc1OCC(O)CN1CCCC1 (centres unmarked)
0.7

----------
# Test system: APEC serotype O78
# Condition: efficacy trial, oral; vs PC
Recorded % reduction in severity, Heart lesions values for a group of molecules are listed next.
The answer is to be given in %; state only the numeric part.

Look over these answered cases.
COc1cc(CNCCc2ccc3ccccc3c2)ccc1OCC(O)CN1CCCC1 (stereo not drawn) [GI-2]    12
COc1ccc(CNCc2cccc(C(F)(F)F)c2)cc1OCC(O)CN1CCCC1 (stereo not drawn) [GI-7]    60
CCN1/C(=C/c2ccc3ccccc3[n+]2CC)C=Cc2ccccc21 [GI-9]    −60
CC1CCCN(CCC(=O)c2ccc(Br)cc2)C1 (stereo not drawn) [GI-1]    4
COc1cc(CNCCc2ccc(C)cc2)ccc1OCC(O)CN1CCCC1 (stereo not drawn) [GI-3]    4

Next:
Value lookup for % reduction in severity, Heart lesions; key = CC(=O)OC(C(Br)C(=O)c1ccc([N+](=O)[O-])cc1)C(Cl)(Cl)Cl (stereo not drawn) [GI-10]
−4

----------
# Tested on: APEC serotype O78
# Condition: efficacy trial, oral
Measured metric: Mean lesion score in Liver
Answer using only a numeral; do not append any unit.

Below: 5 molecules and their reported Mean lesion score in Liver.
COc1cc(CNCCc2ccc(C)cc2)ccc1OCC(O)CN1CCCC1 (stereo not drawn)    2
CC1CCCN(CCC(=O)c2ccc(Br)cc2)C1 (stereo not drawn)    2.0
CC(=O)OC(C(Br)C(=O)c1ccc([N+](=O)[O-])cc1)C(Cl)(Cl)Cl (stereo not drawn)    1.3
COc1ccc(CNCc2cccc(C(F)(F)F)c2)cc1OCC(O)CN1CCCC1 (stereo not drawn)    0.7
CCN1/C(=C/c2ccc3ccccc3[n+]2CC)C=Cc2ccccc21    2.5

Now examine the next entry.
Recorded Mean lesion score in Liver of COc1cc(CNCCc2ccc3ccccc3c2)ccc1OCC(O)CN1CCCC1 (stereo not drawn) , please.
1.7
